test system: CAL-51; experiment: drug sensitivity score (DSS), CellTox Green (DSS (AUC-based score)); higher = stronger drug effect (viability inhibition or cytotoxicity); extreme values may be limits of the assay; conditions: incubation time: 72 h
property: drug sensitivity score
Number only, no unit.

Known results for molecules:
Known value: CAL-51 drug sensitivity score of the molecule COC1=CC(c2cc3ccccc3[nH]2)=N/C1=C\c1[nH]c(C)cc1C [Obatoclax] equals 6.54

Known value: CAL-51 drug sensitivity score of the molecule Cc1cc(C(C)Nc2ccccc2)c2nc(N3CCOCC3)cc(=O)n2c1 (centres undefined) [TGX-221] equals 0

Known value: CAL-51 drug sensitivity score of the molecule CC(C)C[C@H](NC(=O)[C@H](Cc1ccccc1)NC(=O)c1cnccn1)B(O)O [Bortezomib] equals 18.7

Known value: CAL-51 drug sensitivity score of the molecule O=C(c1ccc(OCCN2CCCCC2)cc1)c1c(-c2ccc(O)cc2)sc2cc(O)ccc12 [Raloxifene] equals 0

New cases:
Known value: CAL-51 drug sensitivity score of the molecule COc1c(C)cnc(Cn2cnc3c(Cl)nc(N)nc32)c1C [BIIB021] equals 5.48

====

Catalogue of compounds with associated normalised response
system: MDA-MB-436; assay: normalised response (% of control), CellTiter-Glo; higher = more viable cells (100 = DMSO, 0 = benzethonium chloride kill control); settings: incubation time: 72 h
Enter your answer as a number in %; do not include the unit.

Known results for compounds:
Known value: MDA-MB-436 normalised response of the compound C[C@@H]1C=C2C(=O)O[C@@H]3CC[C@H](C1)[C@]23O [Galiellalactone] (5 nM) equals 107

Known value: MDA-MB-436 normalised response of the compound O=C(c1ccc(OCCN2CCCCC2)cc1)c1c(-c2ccc(O)cc2)sc2cc(O)ccc12 [Raloxifene] (1000 nM) equals 103

Known value: MDA-MB-436 normalised response of the compound CS(=O)(=O)OCCCCOS(C)(=O)=O [Busulfan] (10000 nM) equals 101

Known value: MDA-MB-436 normalised response of the compound CC(C)C[C@H](NC(=O)[C@H](Cc1ccccc1)NC(=O)c1cnccn1)B(O)O [Bortezomib] (0.1 nM) equals 93.4

Known value: MDA-MB-436 normalised response of the compound C#Cc1cccc(Nc2ncnc3cc(OC)c(OCCCCCCC(=O)NO)cc23)c1 [CUDC-101] (1 nM) equals 98.6

Known value: MDA-MB-436 normalised response of the compound COc1c(C)cnc(Cn2cnc3c(Cl)nc(N)nc32)c1C [BIIB021] (10 nM) equals 101

Known value: MDA-MB-436 normalised response of the compound CCS(=O)(=O)c1cccc(-c2cc(C(=O)NC3CCN(C)CC3)c(C)c3[nH]c4ncc(C)cc4c23)c1 [TAK-901] (0.1 nM) equals 93.8

New cases:
Known value: MDA-MB-436 normalised response of the compound CC(C)(C)c1cc(NC(=O)Nc2ccc(-c3cn4c(n3)sc3cc(OCCN5CCOCC5)ccc34)cc2)no1 [Quizartinib] (0.1 nM) equals 101

====

Catalogue of compounds with associated normalised response
system: HDQ-P1; assay: normalised response (% of control), CellTiter-Glo; higher = more viable cells (100 = DMSO, 0 = benzethonium chloride kill control); conditions: incubation time: 72 h
Enter your answer as a number in %; do not include the unit.

# compound FC(F)c1nc2ccccc2n1-c1nc(N2CCOCC2)nc(N2CCOCC2)n1 [ZSTK474] (10000 nM) ; its normalised response = 33

New cases:
# compound CN1CCN(c2ccc3nc(-c4c(N)c5c(F)cccc5[nH]c4=O)[nH]c3c2)CC1 [Dovitinib] (10000 nM) ; its normalised response = 89.8

# compound O=c1[nH]cc(F)c(=O)[nH]1 [Fluorouracil] (10000 nM) ; its normalised response = 91.8

# compound Cc1cc(C(C)Nc2ccccc2)c2nc(N3CCOCC3)cc(=O)n2c1 (centres undefined) [TGX-221] (10000 nM) ; its normalised response = 88.6

====

system: HCC1599; test: normalised response (% of control), CellTiter-Glo; higher = more viable cells (100 = DMSO, 0 = benzethonium chloride kill control); details: incubation time: 72 h
property: normalised response (%)
Enter your answer as a number in %; do not include the unit.

# compound Cc1cc(C(C)Nc2ccccc2)c2nc(N3CCOCC3)cc(=O)n2c1 (stereo not given) [TGX-221] (10 nM) ; its normalised response = 98.4

# compound CN1CCN(c2ccc3nc(-c4c(N)c5c(F)cccc5[nH]c4=O)[nH]c3c2)CC1 [Dovitinib] (1000 nM) ; its normalised response = 106

New cases:
# compound C[C@@]1(C(=O)Nc2ccc(F)nc2)CCCN1c1nc(Nc2cc(C3CC3)n[nH]2)c2cccn2n1 (10 nM) ; its normalised response = 96.1

# compound CN1CCN(c2ccc3nc(-c4c(N)c5c(F)cccc5[nH]c4=O)[nH]c3c2)CC1 [Dovitinib] (10 nM) ; its normalised response = 102

# compound Cn1c(=O)c(F)c(Nc2ccc(I)cc2F)c2c(=O)n(C[C@@H](O)CO)cnc21 [TAK-733] (0.1 nM) ; its normalised response = 94.3

====

system: MFM-223; assay: normalised response (% of control), CellTiter-Glo; higher = more viable cells (100 = DMSO, 0 = benzethonium chloride kill control); details: incubation time: 72 h
Catalogue of molecules with associated normalised response
Enter your answer as a number in %; do not include the unit.

Known results for molecules:
Known value: MFM-223 normalised response of the molecule Nc1nccc(-c2c(-c3ccc(F)cc3)ncn2C2CCCCC2)n1 (1000 nM) equals 105

Known value: MFM-223 normalised response of the molecule C#Cc1cccc(Nc2ncnc3cc(OC)c(OCCCCCCC(=O)NO)cc23)c1 [CUDC-101] (1 nM) equals 98.5

Known value: MFM-223 normalised response of the molecule COc1cc(Nc2ncc(F)c(Nc3ccc4c(n3)NC(=O)C(C)(C)O4)n2)cc(OC)c1OC [Tamatinib] (10 nM) equals 111

Known value: MFM-223 normalised response of the molecule O=c1[nH]cc(F)c(=O)[nH]1 [Fluorouracil] (10 nM) equals 113

Known value: MFM-223 normalised response of the molecule Cn1cnc2c(F)c(Nc3ccc(Br)cc3F)c(C(=O)NOCCO)cc21 [MEK-162] (0.1 nM) equals 101

Below: the item to evaluate.
Known value: MFM-223 normalised response of the molecule CS(=O)(=O)CCNCc1ccc(-c2ccc3ncnc(Nc4ccc(OCc5cccc(F)c5)c(Cl)c4)c3c2)o1 [Lapatinib] (100 nM) equals 104

====

Catalogue of compounds with associated normalised response
test system: MDA-MB-453; assay: normalised response (% of control), CellTiter-Glo; higher = more viable cells (100 = DMSO, 0 = benzethonium chloride kill control); conditions: incubation time: 72 h
Enter your answer as a number in %; do not include the unit.

# compound O=C(c1ccc(OCCN2CCCCC2)cc1)c1c(-c2ccc(O)cc2)sc2cc(O)ccc12 [Raloxifene] (1000 nM) ; its normalised response = 103

# compound CCCC(CCC)C(=O)O [Valproic acid] (100000 nM) ; its normalised response = 91.1

# compound CC(=O)O[C@H]1C(=O)[C@@]2(C)[C@H]([C@H](OC(=O)c3ccccc3)[C@]3(O)C[C@H](OC(=O)[C@H](O)[C@@H](NC(=O)c4ccccc4)c4ccccc4)C(C)=C1C3(C)C)[C@]1(OC(C)=O)CO[C@@H]1C[C@@H]2O [Paclitaxel] (1 nM) ; its normalised response = 92.8

New cases:
# compound FC(F)c1nc2ccccc2n1-c1nc(N2CCOCC2)nc(N2CCOCC2)n1 [ZSTK474] (1000 nM) ; its normalised response = 40.4

# compound CN1CCN(c2ccc3nc(-c4c(N)c5c(F)cccc5[nH]c4=O)[nH]c3c2)CC1 [Dovitinib] (1000 nM) ; its normalised response = 92

# compound C[C@@H]1CCN(C(=O)CC#N)C[C@@H]1N(C)c1ncnc2[nH]ccc12 [Tofacitinib] (0.5 nM) ; its normalised response = 103

# compound COc1ncc(-c2ccc3nccc(-c4ccnnc4)c3c2)cc1NS(=O)(=O)c1ccc(F)cc1F (100 nM) ; its normalised response = 20.1

# compound O=c1[nH]c(=O)n([C@H]2C[C@H](O)[C@@H](CO)O2)cc1F [Floxuridine] (1000 nM) ; its normalised response = 102

# compound CC(C)C[C@H](NC(=O)[C@H](Cc1ccccc1)NC(=O)c1cnccn1)B(O)O [Bortezomib] (1 nM) ; its normalised response = 97

# compound Cn1c(=O)c(F)c(Nc2ccc(I)cc2F)c2c(=O)n(C[C@@H](O)CO)cnc21 [TAK-733] (1 nM) ; its normalised response = 98.7

# compound C[C@@H]1C=C2C(=O)O[C@@H]3CC[C@H](C1)[C@]23O [Galiellalactone] (5 nM) ; its normalised response = 108

# compound COC1=CC(c2cc3ccccc3[nH]2)=N/C1=C\c1[nH]c(C)cc1C [Obatoclax] (10 nM) ; its normalised response = 104
